Target: T1, human LIGHT (TNFSF14), full length, membrane-bound (214E allele) (human, UniProt O43557 1-240)
T1 construct: also called membrane LIGHT; human membrane LIGHT
T1 sequence (O43557 whole entry K214E): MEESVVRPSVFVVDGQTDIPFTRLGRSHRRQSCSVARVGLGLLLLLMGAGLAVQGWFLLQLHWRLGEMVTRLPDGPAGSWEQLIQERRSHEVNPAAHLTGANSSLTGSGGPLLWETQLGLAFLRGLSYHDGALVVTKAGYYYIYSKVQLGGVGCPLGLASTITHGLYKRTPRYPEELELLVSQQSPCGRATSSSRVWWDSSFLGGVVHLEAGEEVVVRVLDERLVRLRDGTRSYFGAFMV
Experiment: DcR3-His (1 nM) competition, EL4-LIGHT, flow cytometry; 33.3 nM
Recorded DcR3-His binding, % of irrelevant mAb by entry
The answer is to be given in %; state only the numeric part.

>>> numeric_readout("3B04 (antibody, human IgG4, V domains shown, chimeric: mouse variable domains on human IgG4 HC (S-to-P and L-to-E at 248) and human CL; also called Parental 3B04; 3B04 chimeric) VH: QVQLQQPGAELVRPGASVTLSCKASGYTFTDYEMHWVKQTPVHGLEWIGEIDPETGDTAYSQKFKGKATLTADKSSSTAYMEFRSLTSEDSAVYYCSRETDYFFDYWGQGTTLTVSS VL: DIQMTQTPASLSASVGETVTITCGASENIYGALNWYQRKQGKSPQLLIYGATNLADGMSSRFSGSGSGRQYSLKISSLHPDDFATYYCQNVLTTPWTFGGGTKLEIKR")
85.1

Now consider a different binder.
Req: Please supply the value of reported DcR3-His binding, % of irrelevant mAb for the item 2B11 (antibody, human IgG4, V domains shown, chimeric human IgG4 (S-to-P, L-to-E at 248), human CL; also called Parental 2B11) VH: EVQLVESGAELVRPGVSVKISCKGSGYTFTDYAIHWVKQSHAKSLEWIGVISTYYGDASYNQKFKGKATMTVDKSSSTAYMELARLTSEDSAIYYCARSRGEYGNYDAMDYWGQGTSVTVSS VL: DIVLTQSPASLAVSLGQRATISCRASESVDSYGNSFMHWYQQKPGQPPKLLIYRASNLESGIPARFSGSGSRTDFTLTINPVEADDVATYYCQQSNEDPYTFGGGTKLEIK
Resp: 79.8
